# Tested on: Salmonella enteritidis (ATCC 15277)
# Format: cell-based
# reported-conditions: ATCC 15277, 12 h
# Method: […] The antimicrobial activity of the peptides prepared in Example 1 was determined against microorganisms by 96-well microdilution minimal inhibitory concentration assay. […]
No end group written: not given here.

- substance: "RLLRRLLRRLLRNWPIGRLLR [compound 54]"
  unit-abbreviation: "µg/mL"
  Minimum Inhibitory Concentration: 1
- substance: "KVVKQWPIGKVVKKVVKKVVK [compound 2]"
  unit-abbreviation: "µg/mL"
  Minimum Inhibitory Concentration: 1
- substance: "RVVRRVVRRVVRNWPIGRVVR [compound 52]"
  unit-abbreviation: "µg/mL"
  Minimum Inhibitory Concentration: 2
- substance: "KVVKKVVKKVVKQWPIGKVVK [compound 36]"
  unit-abbreviation: "µg/mL"
  Minimum Inhibitory Concentration: 1
- substance: "KLLKKLLKKLLKNWPIGKLLK [compound 55]"
  unit-abbreviation: "µg/mL"
  Minimum Inhibitory Concentration: 1
- substance: "KLLRNWPIGKLLRKLLRKLLR [compound 29]"
  unit-abbreviation: "µg/mL"
  Minimum Inhibitory Concentration: 1
- substance: "KVLRKVLRKVLRQWPIGKVLR-NH2 [compound 71]"
  unit-abbreviation: "µg/mL"
  Minimum Inhibitory Concentration: 1
- substance: "KLVRKLVRKLVRQFPVGKLVR [compound 51]"
  unit-abbreviation: "µg/mL"
  Minimum Inhibitory Concentration: 2
- substance: "RVLKRVLKRVLKQWPIGRVLK [compound 47]"
  unit-abbreviation: "µg/mL"
  Minimum Inhibitory Concentration: 1
- substance: "RLLKRLLKRLLKQWPIGRLLK [compound 45]"
  unit-abbreviation: "µg/mL"
  Minimum Inhibitory Concentration: 2
- substance: "RLLRNWPIGRLLRRLLRRLLR [compound 20]"
  unit-abbreviation: "µg/mL"
  Minimum Inhibitory Concentration: 2
- substance: "KLVRKLVRKLVRQWPIGKLVR [compound 50]"
  unit-abbreviation: "µg/mL"
  Minimum Inhibitory Concentration: 2

----------
# key: entry, value: Minimum Inhibitory Concentration
# Tested on: Salmonella enteritidis (ATCC 15277)
# Assay type: cell-based
# reported-conditions: ATCC 15277, 12 h
No end group written: not given here.
result-type: Minimum Inhibitory Concentration

- biopolymer-sequence: "KLVKKLVKKLVKQWPIGKLVK [compound 42]"
  recorded-value: "1 µg/mL"
- biopolymer-sequence: "KVVRQWPIGKVVRKVVRKVVR [compound 10]"
  recorded-value: "1 µg/mL"
- biopolymer-sequence: "RVLRRVLRRVLRQWPIGRVLR [compound 39]"
  recorded-value: "1 µg/mL"
- biopolymer-sequence: "KLVRNFPVGKLVRKLVRKLVR [compound 34]"
  recorded-value: "1 µg/mL"
- biopolymer-sequence: "RLLRRLLRRLLRQWPIGRLLR [compound 37]"
  recorded-value: "2 µg/mL"
- biopolymer-sequence: "KVLRKVLRKVLRNWPIGKVLR [compound 65]"
  recorded-value: "2 µg/mL"

----------
# System: Saccharomyces cerevisiae (ATCC 44774)
# Assay type: cell-based
# reported-conditions: ATCC 44774, 12 h
No end group written: not given here.
Readings of Minimum Inhibitory Concentration for the listed sequences

- biopolymer-sequence: "KVVKKVVKKVVKQWPIGKVVK [compound 36]"
  unit-abbreviation: "µg/mL"
  Minimum Inhibitory Concentration: 2
- biopolymer-sequence: "RVVRNWPIGRVVRRVVRRVVR [compound 18]"
  unit-abbreviation: "µg/mL"
  Minimum Inhibitory Concentration: 1
- biopolymer-sequence: "KLLKKLLKKLLKNWPIGKLLK [compound 55]"
  unit-abbreviation: "µg/mL"
  Minimum Inhibitory Concentration: 2
- biopolymer-sequence: "KLVKQWPIGKLVKKLVKKLVK [compound 8]"
  unit-abbreviation: "µg/mL"
  Minimum Inhibitory Concentration: 2
- biopolymer-sequence: "RVVRRVVRRVVRNWPIGRVVR [compound 52]"
  unit-abbreviation: "µg/mL"
  Minimum Inhibitory Concentration: 1
- biopolymer-sequence: "KVLKKVLKKVLKNWPIGKVLK [compound 57]"
  unit-abbreviation: "µg/mL"
  Minimum Inhibitory Concentration: 2

Origin of measurements: patent US7348402B2
